Please go through the items and note down their relative viability.
test system: LK-2; assay: relative viability (nuclei count vs DMSO), 5 days (fraction); higher = more cells survive; conditions: first compound 8 µM

Solved cases (3 shown):
O=c1[nH]c2ccccc2n1C1CCN(CCCC(c2ccc(F)cc2)c2ccc(F)cc2)CC1 [Pimozide] + Cc1nc(Nc2ncc(C(=O)Nc3c(C)cccc3Cl)s2)cc(N2CCN(CCO)CC2)n1 [Dasatinib] (partner 0.075 µM)    0.24
O=c1[nH]c2ccccc2n1C1CCN(CCCC(c2ccc(F)cc2)c2ccc(F)cc2)CC1 [Pimozide] + CCNC(=O)c1noc(-c2cc(C(C)C)c(O)cc2O)c1-c1ccc(CN2CCOCC2)cc1 [Luminespib] (partner 0.01 µM)    0.188
O=c1[nH]c2ccccc2n1C1CCN(CCCC(c2ccc(F)cc2)c2ccc(F)cc2)CC1 [Pimozide] + O=C(c1cc(Cc2n[nH]c(=O)c3ccccc23)ccc1F)N1CCN(C(=O)C2CC2)CC1 [Olaparib] (partner 8 µM)    0.691

Note: attention shifts to another entry.
GET /value?item= O=c1[nH]c2ccccc2n1C1CCN(CCCC(c2ccc(F)cc2)c2ccc(F)cc2)CC1 [Pimozide] + N=C(N)NC(=N)NCCc1ccccc1 [Phenformin] (partner 250 µM) &field=relative viability returns 0.345
